- TARGET: UniProtKB P63000
MEASUREMENT_NAME: Ki (µM)
I only need the number, in µM, no unit after it.

Exercise: Look at this molecule and give its reported Ki. CC(=O)c1cccc(NC(=O)c2ccc(-c3cccc([N+](=O)[O-])c3)o2)c1
Solution: 6.8

---

- TARGET: Rac1 (His-Rac1) (Homo sapiens)
- Construct: wild type by context
- MEASUREMENT_NOTES: GST-PAK1 pull-down of Rac1-GTP-γS, immunoblot
- Assay type: binding
MEASUREMENT_NAME: pIC50
Note: pIC50 values are expressed as the negative base-10 logarithm of concentration in M.

Exercise: Look up pIC50 with Rac1 (His-Rac1) (Homo sapiens) for this compound: Cc1cc(C)cc(NC(=O)Cn2cc(C(=O)c3cccs3)c3ccccc32)c1 [#6, compound #6]
Solution: 7.06

---

- TARGET: Rac1 (endogenous, CD18/HPAF cells) (Homo sapiens)
- Construct: endogenous Rac1 of CD18/HPAF human pancreatic cancer cells; Rac1-GTP captured with GST-PAK1 and blotted with Rac1 antibody 23A8
- MEASUREMENT_NOTES: Rac1-GTP pull-down with GST-PAK1 from EGF-stimulated cells, immunoblot
- TEST_SETTINGS: intact cells, 2 h compound, then EGF 100 ng/ml 5 min
MEASUREMENT_NAME: EC50 (µM)
I only need the number, in µM, no unit after it.

Exercise: Look up EC50 with Rac1 (endogenous, CD18/HPAF cells) (Homo sapiens) for this molecule: Cc1cc(C)cc(NC(=O)Cn2cc(C(=O)c3cccs3)c3ccccc32)c1
Solution: 22.4

Exercise: Please give the result for CC(=O)c1cccc(NC(=O)c2ccc(-c3cccc([N+](=O)[O-])c3)o2)c1 too.
Solution: 8.3

---

- TARGET: Rac1 (His-Rac1) (Homo sapiens, UniProt P63000)
- Construct: wild type by context
- MEASUREMENT_NOTES: GST-PAK1 pull-down of Rac1-GTP-γS, immunoblot
- Format: binding
- TEST_SETTINGS: read-out: IC50
MEASUREMENT_NAME: pIC50
Note: pIC50 values are expressed as the negative base-10 logarithm of concentration in M.

Exercise: Look at this molecule and give its reported pIC50. CC(=O)c1cccc(NC(=O)c2ccc(-c3cccc([N+](=O)[O-])c3)o2)c1
Solution: 7.02
